- systemTested: Bifunctional dihydrofolate reductase-thymidylate synthase (Cryptosporidium hominis)
- test: Inhibition of recombinant Cryptosporidium hominis TS-DHFR expressed in Escherichia coli PA414 assessed as reduction in DHFR steady state activity at 500 uM using [3',5',7,9-3H]-H2folate as substrate preincubated for 10 mins before NADPH addition for 5 mins followed by substrate addition and measured after 5 mins by NADPH based radiometric chemical quench assay relative to control
If the reported inhibition equals or exceeds 10%, assign True. If not, assign False.

- smilesRepresentation: "Nc1cc(NC(=O)c2ccccc2O)ccc1Cl"
  label: "False"
- smilesRepresentation: "O=C(O)c1nccnc1-c1nc(=O)c2ccccc2[nH]1"
  label: "False"
- smilesRepresentation: "CNC(=O)c1ccc(NC(=O)c2ccccc2O)cc1"
  label: "True"
- smilesRepresentation: "O=C(NCc1cccs1)c1ccc2nccnc2c1"
  label: "False"
- smilesRepresentation: "O=C(Nc1cc(Cl)cc(Cl)c1)c1cc(Br)ccc1O"
  label: "True"
- smilesRepresentation: "NC(=S)Cc1c(Cl)sc2ccc(Cl)cc12"
  label: "True"
- smilesRepresentation: "Oc1nc2ccccc2nc1O"
  label: "False"
- smilesRepresentation: "O=C(Nc1ccccc1O)c1ccc(Br)cc1O"
  label: "False"
- smilesRepresentation: "COc1cc(C(F)(F)F)c(C(N)=O)cn1"
  label: "False"
- smilesRepresentation: "CC(=O)C[C@@]1(O)C(=O)Nc2ccc(F)cc21"
  label: "False"
- smilesRepresentation: "O=C(Nc1ccc(Br)cc1)c1ccccc1O"
  label: "False"
- smilesRepresentation: "O=C1NC(=S)NC(=O)C1=Cc1c[nH]c2ccccc12"
  label: "False"
- smilesRepresentation: "O=C(Nc1ccc(Cl)cc1)c1cc(I)ccc1O"
  label: "True"
- smilesRepresentation: "Nc1cccc(NC(=O)c2ccccc2O)c1"
  label: "False"
- smilesRepresentation: "O=C(Nc1ccc(Cl)cc1)c1cc(Br)ccc1O"
  label: "True"
- smilesRepresentation: "O=C(NNC(=O)c1ccccc1CO)c1ccc(Cl)c(Cl)c1"
  label: "True"
- smilesRepresentation: "COc1ccc(Br)c(OC)c1C(=O)NC(=O)Nc1cc(Cl)cc(Cl)c1"
  label: "False"
- smilesRepresentation: "O=C(Nc1cccc(Cl)c1)c1cc(Cl)ccc1O"
  label: "True"
- smilesRepresentation: "CCOC(=O)C(=CNNC(=O)[C@@H]1[C@@H](C(=O)O)[C@H]2C=C[C@@H]1C2)C(=O)OCC"
  label: "False"
- smilesRepresentation: "O=C(Nc1ccc(F)cc1)c1cc(Br)ccc1O"
  label: "True"
- smilesRepresentation: "Cc1cc(Br)ccc1NC(=S)Nc1cccc(NC(=O)c2ccccc2O)c1"
  label: "True"
- smilesRepresentation: "O=C(Nc1ccc(F)c(Cl)c1)c1cc(Br)ccc1O"
  label: "True"
- smilesRepresentation: "CCOC(=O)C1=C(C)NC(C)=C(C(=O)OCC)C1c1ccc2c(c1)OCO2"
  label: "False"

###

- systemTested: Bifunctional dihydrofolate reductase-thymidylate synthase (Cryptosporidium hominis) (UniProt A0A0S4TER9)
- Sequence (A0A0S4TER9 as listed by the source): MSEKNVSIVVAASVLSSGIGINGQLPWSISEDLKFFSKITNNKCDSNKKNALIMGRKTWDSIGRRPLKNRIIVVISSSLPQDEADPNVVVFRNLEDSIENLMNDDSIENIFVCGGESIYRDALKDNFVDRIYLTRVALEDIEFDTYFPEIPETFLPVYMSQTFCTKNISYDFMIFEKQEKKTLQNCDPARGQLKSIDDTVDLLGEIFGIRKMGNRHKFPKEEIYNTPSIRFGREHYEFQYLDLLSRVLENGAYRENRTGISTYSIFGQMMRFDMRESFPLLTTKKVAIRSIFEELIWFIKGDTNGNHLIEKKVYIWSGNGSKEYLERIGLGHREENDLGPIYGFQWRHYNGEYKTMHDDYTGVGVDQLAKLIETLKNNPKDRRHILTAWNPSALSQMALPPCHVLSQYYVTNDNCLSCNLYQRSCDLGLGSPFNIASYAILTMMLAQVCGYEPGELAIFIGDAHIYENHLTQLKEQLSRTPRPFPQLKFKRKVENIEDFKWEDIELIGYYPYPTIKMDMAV
- test: Inhibition of recombinant Cryptosporidium hominis TS-DHFR expressed in Escherichia coli PA414 assessed as reduction in DHFR steady state activity at 500 uM using [3',5',7,9-3H]-H2folate as substrate preincubated for 10 mins before NADPH addition for 5 mins followed by substrate addition and measured after 5 mins by NADPH based radiometric chemical quench assay relative to control
In this section, each of the molecules is paired with its reported inhibition.

- smilesRepresentation: "O=C(O)C[C@@H]1SC(c2ccc3c(c2)OCO3)=NC1=O"
  inhibition: "-0.67%"
- smilesRepresentation: "Cc1cc2c(cc1C)N[C@H](C)CC(=O)N2"
  inhibition: "-3.8%"
- smilesRepresentation: "Cc1ccc(C(=O)Nc2cc(Cl)cc(Cl)c2)c(O)c1"
  inhibition: "61%"
- smilesRepresentation: "O=c1ccn([C@H]2C[C@H](O)[C@@H](CO)O2)c(=O)[nH]1"
  inhibition: "-5.3%"
- smilesRepresentation: "NCc1ccc(NC(=O)c2ccccc2O)cc1"
  inhibition: "1.1%"
- smilesRepresentation: "O=C(Nc1cc(C(F)(F)F)cc(C(F)(F)F)c1)c1cc(Br)ccc1O"
  inhibition: "24.4%"
